target: Cytochrome P450 2D6 (Homo sapiens, UniProt P10635); assay: Inhibition of human CYP2D6 preincubated for 10 min followed by addition of NADPH and measured after 10 min by LC-MS/MS analysis; assay type: ADME
Sequence (P10635 whole entry): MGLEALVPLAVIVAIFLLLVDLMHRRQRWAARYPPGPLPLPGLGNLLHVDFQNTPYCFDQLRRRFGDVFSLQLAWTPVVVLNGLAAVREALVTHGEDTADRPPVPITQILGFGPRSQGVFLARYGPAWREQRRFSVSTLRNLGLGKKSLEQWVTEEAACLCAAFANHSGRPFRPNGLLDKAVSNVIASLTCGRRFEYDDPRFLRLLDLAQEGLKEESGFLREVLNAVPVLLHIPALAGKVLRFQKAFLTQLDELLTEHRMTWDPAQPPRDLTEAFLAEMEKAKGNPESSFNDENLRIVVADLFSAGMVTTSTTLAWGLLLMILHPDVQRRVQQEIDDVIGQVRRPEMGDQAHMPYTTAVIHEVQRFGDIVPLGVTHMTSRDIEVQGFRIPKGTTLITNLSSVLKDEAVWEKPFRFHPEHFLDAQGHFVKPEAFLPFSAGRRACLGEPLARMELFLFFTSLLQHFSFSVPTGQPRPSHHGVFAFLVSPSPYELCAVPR
pIC50: −log10 of the molar value.
REPORTED METRIC: pIC50

Input: Tell me the measured pIC50 of NC(=O)[C@@H]1C[C@H](F)CN1Cc1ccc(OCc2cccc(F)c2)cc1 , please.
Output: < 4.54

====

assay: Volume of distribution at steady state in Cynomolgus monkey at 1 mg/kg, iv measured upto 24 hrs; type: ADME, organism-based, Macaca fascicularis; conditions: in vivo, read-out: Vdss
Provide the reported Vd of each item.
Unit L/kg implied. Number only.

Input: Tell me the measured Vd of C[C@H](NCc1ccc(OCc2cccc(F)c2)cc1)C(N)=O [SAFINAMIDE] , please.
Output: 7.15

Input: Item: NC(=O)[C@@H]1C[C@H](F)CN1Cc1ccc(OCc2cccc(F)c2)cc1
Output: 1.06

====

Provide the reported AUC(0-t) at 24 h of each item.
assay: AUC (0-t) in Sprague dawley rat at 5 mg/kg, po measured upto 24 hrs; type: ADME, organism-based; design: route oral, dose 5 mg/kg, time <=24; details: in vivo
Unit ng·h/mL implied. Number only.

Input: Tell me the measured AUC(0-t) at 24 h of C[C@H](NCc1ccc(OCc2cccc(F)c2)cc1)C(N)=O [SAFINAMIDE] , please.
Output: 795

Input: Item: NC(=O)[C@@H]1C[C@H](F)CN1Cc1ccc(OCc2cccc(F)c2)cc1
Output: 1400

Input: Item: NC(=O)[C@@H]1CCCN1Cc1ccc(OCc2cccc(F)c2)cc1
Output: 284

Input: Item: C[C@H]1C[C@@H](C(N)=O)N(Cc2ccc(OCc3cccc(F)c3)cc2)C1
Output: 176

====

Provide the reported bioavailability of each item.
assay: Oral bioavailability in Sprague dawley rat at 5 mg/kg measured upto 24 hrs; assay type: ADME, organism-based; conditions: in vivo

Input: Tell me the measured bioavailability of NC(=O)[C@@H]1CCCN1Cc1ccc(OCc2cccc(F)c2)cc1 , please.
Output: 16.3%

Input: Item: C[C@H]1C[C@@H](C(N)=O)N(Cc2ccc(OCc3cccc(F)c3)cc2)C1
Output: 16.9%

Input: Item: NC(=O)[C@@H]1C[C@H](F)CN1Cc1ccc(OCc2cccc(F)c2)cc1
Output: 55.2%

Input: Item: C[C@H](NCc1ccc(OCc2cccc(F)c2)cc1)C(N)=O [SAFINAMIDE]
Output: 63.2%

====

Provide the reported pIC50 of each item.
molecular target: UniProt:P27338; test: Inhibition of recombinant human MAO-B expressed in Sf9 cells preincubated for 15 min followed by addition of benzylamine and measured after 60 min by Luminex assay
Sequence (P27338 whole entry): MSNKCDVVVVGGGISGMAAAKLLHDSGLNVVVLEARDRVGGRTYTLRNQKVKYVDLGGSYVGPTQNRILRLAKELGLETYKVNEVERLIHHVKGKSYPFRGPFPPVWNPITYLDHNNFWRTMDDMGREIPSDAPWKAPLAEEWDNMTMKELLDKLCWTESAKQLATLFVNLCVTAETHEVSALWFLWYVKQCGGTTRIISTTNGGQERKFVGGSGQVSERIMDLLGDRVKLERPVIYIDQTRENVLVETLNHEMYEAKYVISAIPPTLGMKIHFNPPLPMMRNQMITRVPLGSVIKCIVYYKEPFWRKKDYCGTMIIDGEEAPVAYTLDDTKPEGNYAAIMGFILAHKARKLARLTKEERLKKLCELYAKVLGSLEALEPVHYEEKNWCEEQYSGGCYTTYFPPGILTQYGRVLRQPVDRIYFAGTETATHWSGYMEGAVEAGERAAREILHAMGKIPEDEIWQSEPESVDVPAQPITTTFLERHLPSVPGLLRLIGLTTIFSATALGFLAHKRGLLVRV
The scale used: pIC50 is minus the common logarithm of the concentration in molar units.

Input: Tell me the measured pIC50 of NC(=O)[C@@H]1C[C@H](F)CN1Cc1ccc(OCc2cccc(F)c2)cc1Cl , please.
Output: 6.85

Input: Item: C[C@H]1C[C@@H](C(N)=O)N(Cc2ccc(OCc3cccc(F)c3)cc2)C1
Output: 7.09

Input: Item: C[C@@H]1C[C@@H](C(N)=O)N(Cc2ccc(OCc3cccc(F)c3)cc2)C1
Output: 5.66

Input: Item: NC(=O)[C@@H]1C[C@@H](F)CN1Cc1ccc(OCc2cccc(F)c2)cc1F
Output: 5.66
